tested on: Aspergillus fumigatus; assay: Antimicrobial activity against Aspergillus fumigatus; assay type: functional
property-label: MIC (µg/mL)
Numeric only. Scale: µg/mL

Query: Data request, read-out MIC, for C[C@@H]1[C@H](O)[C@@H](C)/C=C/C=C/C=C/C=C/C=C/C=C/C=C/[C@H](O[C@@H]2O[C@H](C)[C@@H](O)[C@H](N)[C@@H]2O)C[C@@H]2O[C@](O)(C[C@@H](O)C[C@@H](O)[C@H](O)CC[C@@H](O)C[C@@H](O)CC(=O)O[C@H]1C)C[C@H](O)[C@H]2C(=O)O
Response: 0.5

###

experiment: Hemolytic activity in human RBC at 25 ug/ml relative to control; format: ADME, cell-based, Erythrocyte; settings: red blood cells (erythrocytes), read-out: Activity
property-label: hemolysis at 25 ug/ml (%)
Report only the number, with the unit % understood.

Consider the following illustrative entries.
{"compound": "C=C1CC[C@@H]2[C@](C)(CO)[C@H](O)CC[C@@]2(C)[C@@H]1C/C=C1/C(=O)OC[C@H]1OC(=O)CCCCCCCCC", "unit-annotation": "%", "hemolysis at 25 ug/ml": 35}
{"compound": "C=C1CC[C@@H]2[C@](C)(CO)[C@H](O)CC[C@@]2(C)[C@@H]1C/C=C1/C(=O)OC[C@H]1OC(C)=O", "unit-annotation": "%", "hemolysis at 25 ug/ml": 4.8}
{"compound": "C=C1CC[C@@H]2[C@](C)(CO)[C@H](O)CC[C@@]2(C)[C@@H]1C/C=C1/C(=O)OC[C@H]1O [ANDROGRAPHOLIDE]", "unit-annotation": "%", "hemolysis at 25 ug/ml": 8.5}
{"compound": "C=C1CC[C@@H]2[C@](C)(CO)[C@H](O)CC[C@@]2(C)[C@@H]1C/C=C1/C(=O)OC[C@H]1OC(=O)CCC", "unit-annotation": "%", "hemolysis at 25 ug/ml": 7.1}
{"compound": "C=C1CC[C@@H]2[C@](C)(CO)[C@H](O)CC[C@@]2(C)[C@@H]1C/C=C1/C(=O)OC[C@H]1OC(=O)CC", "unit-annotation": "%", "hemolysis at 25 ug/ml": 6.4}

Turning now to a further compound:
Query: So what's the measured hemolysis at 25 ug/ml for this one? C=C1CC[C@@H]2[C@](C)(CO)[C@H](O)CC[C@@]2(C)[C@@H]1C/C=C1/C(=O)OC[C@H]1OC(=O)CCCCCCCCCCC
Response: 46

###

system: Candida albicans; assay: Antimicrobial activity against Candida albicans; format: functional
property-label: MIC (µg/mL)

{"structure-notation": "C=C1CC[C@@H]2[C@](C)(CO)[C@H](O)CC[C@@]2(C)[C@@H]1C/C=C1/C(=O)OC[C@H]1OC(=O)CCCCCCCCCCC", "unit-annotation": "µg/mL", "test-value": 32}

(I) C=C1CC[C@@H]2[C@](C)(CO)[C@H](O)CC[C@@]2(C)[C@@H]1C/C=C1/C(=O)OC[C@H]1OC(=O)CC
(II) C=C1CC[C@@H]2[C@](C)(CO)[C@H](O)CC[C@@]2(C)[C@@H]1C/C=C1/C(=O)OC[C@H]1OC(=O)CCC
(III) C=C1CC[C@@H]2[C@](C)(CO)[C@H](O)CC[C@@]2(C)[C@@H]1C/C=C1/C(=O)OC[C@H]1OC(C)=O
Query: List the 3 entries from lowest MIC to highest MIC value. Write the labels, ordered according to the request.
Response: I, III, II
(I: 16 µg/mL, III: 32 µg/mL, II: 64 µg/mL)
